# procedureSummary: antibacterial activity by ATP level – BacTiter-Glo luminescence, cherry-picked samples, counter-screen, dose response (AID 504843);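 further: growth measured after 8 h incubation at 30 °C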
# measurementSetup: bacterial growth; series mostly up to 15 µM
Screen size: about 1,200 compounds; about 360 (30%) were called active. These entries were drawn from the full list. Measured potencies and affinities stand elsewhere.
measurementKind: outcome

// solved cases for outcome follow
- compound: "COC(=O)COc1cccc(NC(=O)c2cccc(C)c2)c1"
  outcome: "inactive"
- compound: "Cc1cccc(OCC(O)Cn2c(=N)n(CCN3CCOCC3)c3ccccc32)c1 (stereo unspecified)"
  outcome: "inactive"
- compound: "COc1ccccc1NS(=O)(=O)c1ccc2[nH]c(=S)oc2c1"
  outcome: "inactive"
- compound: "CC(/C=N/NC(=O)c1nnn(-c2nonc2N)c1C(C)C)=C\\c1ccccc1"
  outcome: "inactive"

Item under review: `O=C(CSc1nc2ccccc2c(=O)[nH]1)N1CCN(c2ccccc2F)CC1` . Reported outcome?
inactive

Item under review: `Fc1ccc(-n2c(-c3ccc4ccccc4n3)n[nH]c2=S)cc1Cl` . Reported outcome?
inactive

---

# procedureSummary: antibacterial activity by ATP level – BacTiter-Glo luminescence, cherry-picked samples, counter-screen, dose response (AID 504843);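 further: growth measured after 8 h incubation at 30 °C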
# measurementSetup: bacterial growth; series mostly up to 15 µM
About 360 (30%) of roughly 1,200 compounds were called active. Only a sample is shown. Results with a measured potency or affinity are listed apart.
measurementKind: outcome

// solved cases for outcome follow
- molecule: "Cc1n[nH]c(=O)nc1N1CCc2ccccc2C1"
  reportedMeasurement: "inactive"
- molecule: "CN1CCc2c(sc3nc(SCC(=O)N4CCOCC4)nc(N)c23)C1"
  reportedMeasurement: "inactive"
- molecule: "Cc1ccc(NC(=O)c2cc(N3C(=O)C4CC=CCC4C3=O)ccc2N2CCOCC2)cc1Cl (stereo not drawn)"
  reportedMeasurement: "inactive"
- molecule: "Cc1cc(C)n2nc(SCC(=O)N3CCN(c4ccccc4)CC3)nc2n1"
  reportedMeasurement: "inactive"
- molecule: "CCCNc1nc2c(c(=O)[nH]c(=O)n2C)n1CCCc1ccccc1"
  reportedMeasurement: "inactive"

Item under review: `Nc1ccc2c(c1)-c1ccccc1S(=O)(=O)N2` . Reported outcome?
inactive

Item under review: `COc1ccc(-c2cc(C)no2)cc1S(=O)(=O)NCCCN1CCCCCC1` . Reported outcome?
inactive

Item under review: `COc1ccc(S(=O)(=O)N2CCC(C(=O)NCc3cccnc3)CC2)cc1OC` . Reported outcome?
inactive

Item under review: COCCCNc1nc2c(c(=O)[nH]c(=O)n2C)n1CC(O)COc1cccc(C)c1 (stereo not drawn) . Reported outcome?
inactive

Item under review: `CCNc1c(NS(=O)(=O)c2ccc(OC)cc2)c(=O)oc2ccccc12` . Reported outcome?
inactive

---

# procedureSummary: antibacterial activity by ATP level – BacTiter-Glo luminescence, cherry-picked samples, counter-screen, dose response (AID 504843);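 further: growth measured after 8 h incubation at 30 °C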
# measurementSetup: bacterial growth; series mostly up to 15 µM
About 360 (30%) of roughly 1,200 compounds were called active. Not all results are given here. Entries with a potency or affinity are not part of this list.
measurementKind: outcome

- compound: "Clc1ccc(-c2nnc3c4ccccc4nc(N4CCOCC4)n23)cc1Cl"
  outcome: "inactive"
- compound: "CCn1nc(-c2ccccc2)c2nc3ccccc3nc21"
  outcome: "inactive"
- compound: "COC(=O)/C(=C/c1ccco1)NC(=O)c1ccccc1"
  outcome: "inactive"
- compound: "COCCCN=C(c1ccco1)n1c(=S)nc(-c2ccco2)n(CCCOC)c1=S"
  outcome: "inactive"
- compound: "O=C(N/C(=C/c1cccc([N+](=O)[O-])c1)C(=O)N1CCOCC1)c1ccc(Br)cc1"
  outcome: "inactive"

Item under review: `COc1ccc(CNC(=O)Cn2nnc(-c3ccc(NC(=O)C4CCCCC4)cc3)n2)cc1` . Reported outcome?
inactive

Item under review: `CC(=O)c1ccc(-c2cccc(-c3nc4ccccn4c3NC3CCCCC3)c2)cc1` . Reported outcome?
inactive

Item under review: `COc1ccc(CCNC(=O)/C=C/c2ccco2)cc1OC` . Reported outcome?
inactive

Item under review: `O=c1cc(O)nc[nH]1` . Reported outcome?
inactive

Item under review: `CC(C)n1ncc2c(C(=O)N3CCN(Cc4ccc(Br)s4)CC3)cc(C3CC3)nc21` . Reported outcome?
inactive

---

# procedureSummary: antibacterial activity by ATP level – BacTiter-Glo luminescence, cherry-picked samples, counter-screen, dose response (AID 504843);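 further: growth measured after 8 h incubation at 30 °C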
# measurementSetup: bacterial growth; series mostly up to 15 µM
Among all 1,200 compounds or so, about 360 (30%) were called active. A selection follows. Entries with a potency or affinity are not part of this list.
measurementKind: outcome

// solved cases for outcome follow
- compound: "O=C(CSC1=NCCS1)c1ccc(Cl)cc1"
  outcome: "inactive"
- compound: "COCC(=O)Nc1ccccc1Br"
  outcome: "inactive"
- compound: "Cn1ccc(=Nc2ccc(NC(=O)c3ccc(N=c4ccn(C)c5ccc([N+](=O)[O-])cc45)cc3)cc2)cc1"
  outcome: "inactive"
- compound: "Cc1nn(-c2ccccc2)c2nc3c(cc12)C(=O)CCC3"
  outcome: "inactive"
- compound: "O=C(COc1ccc2c3c(c(=O)oc2c1)CCCC3)NCc1ccncc1"
  outcome: "inactive"
- compound: "O=[N+]([O-])c1ccc(/C=N/n2c(CO)nc3ccccc32)s1"
  outcome: "inactive"
- compound: "CCOC(=O)[C@H]1[C@H]2COc3ccc(OC)cc3[C@H]2N2C(=O)CN(Cc3ccccc3)C(=O)[C@@]12C"
  outcome: "inactive"
- compound: "COc1ccc(OC)c(-n2c(SCC(=O)N3CCc4ccccc43)nc3c(c2=O)SCC3)c1"
  outcome: "inactive"
- compound: "CC(C)NC(=O)CN1CCN(C(=O)c2ccc3oc(CCCc4ccccc4)nc3c2)CC1"
  outcome: "inactive"
- compound: "O=c1oc2ccccc2c(N2CCC(c3ccccc3)CC2)c1[N+](=O)[O-]"
  outcome: "inactive"

Would you kindly look at the next entry?
Item under review: COc1ccc(-c2nc(C#N)c(NCC3CCCO3)o2)cc1OC (stereo unspecified) . Reported outcome?
inactive

---

# procedureSummary: antibacterial activity by ATP level – BacTiter-Glo luminescence, cherry-picked samples, counter-screen, dose response (AID 504843);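 further: growth measured after 8 h incubation at 30 °C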
# measurementSetup: bacterial growth; series mostly up to 15 µM
In all, about 1,200 compounds went through this assay and about 360 (30%) were called active. These entries were drawn from the full list. Results with a measured potency or affinity are listed apart.
measurementKind: outcome

- compound: "Cc1ccc(C)c(NC(=S)N(CCc2ccncc2)C(C)C)c1"
  reportedMeasurement: "inactive"
- compound: "CC(/C=N/NC(=O)c1n[nH]c2c1CCC2)=C\\c1ccccc1"
  reportedMeasurement: "inactive"
- compound: "COc1cc2cc(CN(CCO)S(=O)(=O)c3ccccc3Cl)c(=O)[nH]c2cc1OC"
  reportedMeasurement: "inactive"
- compound: "Cc1ccc(-n2c3nc(=O)[nH]c(=O)c-3cc3c(C)nn(-c4ccccc4)c32)c(C)c1"
  reportedMeasurement: "inactive"
- compound: "CSc1ccccc1NC(=O)CN(C)CC(=O)Nc1ccc(S(=O)(=O)N2CCCC2)cc1"
  reportedMeasurement: "inactive"
- compound: "NC(=O)C1CCN(C(=O)CSc2nc3ccccc3o2)CC1"
  reportedMeasurement: "inactive"
- compound: "Nc1ccn(CC(=O)N2CCN(c3ccccn3)CC2)c(=O)n1"
  reportedMeasurement: "inactive"
- compound: "CCc1ncc(C)nc1CC"
  reportedMeasurement: "inactive"
- compound: "c1ccc(C2NCCc3ccccc32)cc1 (stereo unspecified)"
  reportedMeasurement: "inactive"
- compound: "O=C(CSc1cccc2cccnc12)N/N=C/c1ccncc1"
  reportedMeasurement: "inactive"

Item under review: `CC1CCN(c2ccc(C(=O)NCc3ccco3)cc2[N+](=O)[O-])CC1` . Reported outcome?
inactive

Item under review: `O=C(Nc1cccnc1Cl)c1noc2c1CCc1ccccc1-2` . Reported outcome?
inactive

Item under review: `COc1cccc(NC(=O)Nc2cnccn2)c1` . Reported outcome?
inactive

Item under review: `COC(=O)C1=CN(C(C)C)C=C(C(=O)OC)C1c1cccc(OC)c1` . Reported outcome?
inactive

Item under review: `O=C(COc1ccc([N+](=O)[O-])cc1)Nc1cc(S(=O)(=O)N2CCCCC2)ccc1N1CCCCC1` . Reported outcome?
inactive

Item under review: CC(Sc1ccsc1[N+](=O)[O-])C(=O)N1CCN(c2ccccn2)CC1 (stereo unspecified) . Reported outcome?
inactive

Origin of measurements: PubChem BioAssay AID504843
